Numbers sourced from PubChem BioAssay.

Assay: binders of probe aFGF2 on microarray, primary screen, stem cell growth factor project, biochemical, small-molecule microarray, fluorescence 635/667 (AID 1067);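 note: measures binding of biotinylated aFGF2 protein to printed compounds on slides; z-score merges feature fluorescence and signal-to-noise across triplicate slides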
Conditions: higher = more signal
Task for the reader: assign each of the following compounds its reported composite z-score.
Respond with the number and no other words.

Problem: Given the compound `CC(C)[C@@H](C(=O)O)n1cc(-c2ccccn2)nn1` , what is its reported composite z-score?
Result: -0.378

Problem: Check `C#CCOc1ccc(C[C@H]2C(=O)O[C@H](Cc3ccccc3)[C@H](/C=C/C3CC3)N2CC#C)cc1` too.
Result: -0.14

Problem: Check `COCCOC(=O)N1C(=O)[C@@]2(c3cc(C#CCCO)ccc31)[C@H](c1ccccc1OCCO)N1[C@H](c3ccccc3)[C@H](c3ccccc3)OC(=O)[C@H]1[C@@H]2C(=O)NC[C@H](O)c1ccccc1` too.
Result: -0.105

Problem: Check `CC(=O)NCCCC[C@@H]1NC(=O)[C@@H]2C[C@H](C(=O)O)[C@H](c3cccc(OCCO)c3)N2C1=O` too.
Result: -0.112

Problem: Check `CC(C)C(=C=CC[C@H](O)c1ccc(OCCO)cc1)C[C@H](O)COCc1ccccc1` too.
Result: -0.128

Problem: Check `Cc1ccc(S[C@]2(C(=O)NC3CC3)CC(=O)N(Cc3ccccc3C(F)(F)F)[C@@H]2c2ccc(CO)cc2I)cc1` too.
Result: -0.0139

Problem: Check C=CCC(OC(C)=O)[C@@H]1[C@@H](N(Cc2cccc3ccccc23)C(=O)Cc2ccc(OC)cc2)c2cc(OCCCO)ccc2N1C(=O)Cc1ccc(OC)cc1 (some centres undefined) too.
Result: -0.0396

Problem: Check `C=CCN1C(=O)[C@@]2(O[C@@H](CCn3cc(CCO)nn3)[C@H]([Si](C)(C)c3ccc(OC)cc3)[C@H]2C)c2cc(N3C(=O)c4cccc5cccc3c45)ccc21` too.
Result: -0.0839

Problem: Check COC(=O)C1=CC(CCCO)=CC(C2CC2)N(Cc2cc3c(cc2Br)OCO3)C=C1C(=O)OC (centres undefined) too.
Result: -0.0656

Problem: Check `COc1ccc([Si](C)(C)[C@H]2[C@H](CC(=O)N(CCO)Cc3ccccc3)O[C@@]3(C(=O)N(Cc4cccc(N5C(=O)COc6ccccc65)c4)c4ccccc43)[C@@H]2C)cc1` too.
Result: -0.106

Problem: Check `O=C1O[C@H](c2ccccc2)[C@H](c2ccccc2)N2[C@H]1[C@@H](C(=O)Nc1nc3ccccc3s1)[C@]1(C(=O)Nc3ccc(C#CCCO)cc31)[C@H]2c1ccccc1OCCO` too.
Result: -0.038

Problem: Check `CC(C)C[C@@H]1NC(=O)[C@H]2C[C@@H](C(=O)NCCCC[N+](C)(C)C)[C@@H](c3cccc(OCCO)c3)N2C1=O` too.
Result: -0.138

Problem: Check `C=CCNC(=O)[C@H]1[C@@H]2C(=O)O[C@@H](c3ccccc3)[C@@H](c3ccccc3)N2[C@@H](c2ccc(OCCO)cc2)[C@]12C(=O)Nc1ccc(C#CCCO)cc12` too.
Result: -0.0901

Problem: Check `C[N+](C)(C)CCCC[C@@H]1NC(=O)[C@@H]2C[C@H](C(=O)NCCCCCNC(=O)CS)[C@H](c3ccc(O)cc3)N2C1=O` too.
Result: -0.14

Problem: Check `C=C[C@H](OC)[C@@H](OC(=O)Nc1ccc(OC)cc1)c1ccc(OC)c(O)c1` too.
Result: -0.209

Problem: Check `C=CCNC(=O)[C@@H]1[C@H]2C(=O)O[C@H](c3ccccc3)[C@H](c3ccccc3)N2[C@H](c2ccc(O)cc2)[C@@]12C(=O)Nc1ccccc12` too.
Result: -0.0521

Problem: Check `C=C(COC)/C(=C/C[C@H](OC(C)=O)c1cccc(OCCO)c1)c1cc(C(=O)OC)ccc1OC` too.
Result: -0.0986

Problem: Check `C=C(CCCC)/C(=C/C[C@@H](OC(=O)c1ccncc1)c1ccc(OCCO)cc1)c1cnc2ccccc2c1` too.
Result: 0.0166

Problem: Check `NCCCCCCNC(=O)[C@@H]1C[C@@H]2C(=O)N[C@@H](Cc3ccccc3)C(=O)N2[C@@H]1c1ccc(O)cc1` too.
Result: -0.0715

Problem: Check C=C1C=C(Br)C2(OCCCO2)[C@H]2OC12 (some centres undefined) too.
Result: -0.128

Problem: Check `CC(C)(C)OC(=O)CC[C@@]1(C(=O)NCc2ccccc2)N=C(c2ccc(OCCCO)cc2)O[C@@H]1c1ccccc1CN=[N+]=[N-]` too.
Result: 0.015

Problem: Check `COCCCNC(=O)[C@@]1(C)c2ccccc2C(=O)N(Cc2cc(F)cc(C(F)(F)F)c2)[C@H]1c1ccc(CO)cc1` too.
Result: -0.145

Problem: Check `COC(=O)c1c2oc(c1C(=O)OC)C(=O)N[C@@H](C(C)C)Cn1nncc1C1(CCCCC1)NC(=O)N[C@H](CO)CC2` too.
Result: -0.129

Problem: Check `COC(=O)C(CC#Cc1ccc2c(c1)[C@]1(C(=O)N2)[C@H](C(N)=O)[C@H]2C(=O)O[C@H](c3ccccc3)[C@H](c3ccccc3)N2[C@@H]1c1ccc(O)cc1)C(=O)OC` too.
Result: -0.245

Problem: Check `CCCCC(=C=CC[C@H](O)c1cccc(OCCO)c1)CCO` too.
Result: -0.0976

Problem: Check `CCOC(=O)C[C@H]1[C@H](OC(=O)c2cc3ccccc3oc2=O)[C@@H](NC(=O)c2ccccc2)c2cc(OCCCO)ccc2N1C(=O)Cc1ccc(OC)cc1` too.
Result: -0.038

Problem: Check `CC(C)CNC(=O)[C@@H]1c2ccccc2C(=O)N(Cc2ccc(OC(F)(F)F)cc2)[C@H]1c1ccc(CO)cc1` too.
Result: -0.0095

Problem: Check `CC(C)NC(=O)[C@@H]1c2ccccc2C(=O)N(Cc2cc(F)cc(C(F)(F)F)c2)[C@H]1c1ccc(CO)cc1` too.
Result: -0.141

Problem: Check `CC(C)C[C@@H]1NC(=O)[C@@H]2C[C@H](C(=O)NCCCCCNC(=O)CS)[C@H](c3cccc(OCCO)c3)N2C1=O` too.
Result: -0.0332
